- target.of.assay: recombinant human NK3 receptor (Homo sapiens (Human), UniProt P29371)
- Sequence (P29371 whole entry): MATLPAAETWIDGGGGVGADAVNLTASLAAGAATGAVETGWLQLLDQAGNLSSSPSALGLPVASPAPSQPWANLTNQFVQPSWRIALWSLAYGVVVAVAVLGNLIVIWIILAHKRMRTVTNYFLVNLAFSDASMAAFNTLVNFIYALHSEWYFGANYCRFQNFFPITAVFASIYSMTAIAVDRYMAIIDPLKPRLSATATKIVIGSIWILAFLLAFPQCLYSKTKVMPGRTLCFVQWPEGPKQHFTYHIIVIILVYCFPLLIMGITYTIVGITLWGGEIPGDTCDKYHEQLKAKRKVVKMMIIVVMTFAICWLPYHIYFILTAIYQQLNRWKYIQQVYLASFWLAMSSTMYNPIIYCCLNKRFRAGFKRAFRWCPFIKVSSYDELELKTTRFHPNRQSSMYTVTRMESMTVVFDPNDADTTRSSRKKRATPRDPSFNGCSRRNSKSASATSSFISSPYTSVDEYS
- method.description: biochemical
- Format: binding
- conditions: [3H]SR142801, membranes of HEK293 cells transiently expressing recombinant human NK3 receptor; read-out: Data Ki (hNK-3 receptor affinity)
readout: Ki (nM)

CCN(C(=O)Oc1ccc(F)cc1)[C@@H]1CN(C(=O)C2CCN(C(=O)c3cnc(C(F)(F)F)cn3)CC2)C[C@H]1c1ccc(Cl)c(F)c1 :: 5
CCN(C(=O)Oc1ccc(F)cc1)[C@@H]1CN(C(=O)C2CCN(c3ccc(C(C)=O)cn3)CC2)C[C@H]1c1ccc(Cl)c(Cl)c1 :: 0.5
CCN(C(=O)Oc1ccc(F)cc1)[C@@H]1CN(C(=O)C2CCN(c3ccc(C)cn3)CC2)C[C@H]1c1ccc(Cl)c(F)c1 :: 2
CCN(C(=O)Oc1ccc(F)cc1)[C@@H]1CN(C(=O)C2CCN(C(=O)C3CC3(C)C)CC2)C[C@H]1c1ccc(Cl)cc1 (some centres unmarked) :: 3.6
CCN(C(=O)Oc1ccccc1F)[C@@H]1CN(C(=O)C2CCN(C(=O)C3(C)COC3)CC2)C[C@H]1c1ccc(Cl)cc1 :: 29.8
